FYI, the data here is from patent US9434711B2.

# measurement target: canine TRPM8 (Canis lupus familiaris, UniProt Q1A7N1)
# Sequence (Q1A7N1 1-1104): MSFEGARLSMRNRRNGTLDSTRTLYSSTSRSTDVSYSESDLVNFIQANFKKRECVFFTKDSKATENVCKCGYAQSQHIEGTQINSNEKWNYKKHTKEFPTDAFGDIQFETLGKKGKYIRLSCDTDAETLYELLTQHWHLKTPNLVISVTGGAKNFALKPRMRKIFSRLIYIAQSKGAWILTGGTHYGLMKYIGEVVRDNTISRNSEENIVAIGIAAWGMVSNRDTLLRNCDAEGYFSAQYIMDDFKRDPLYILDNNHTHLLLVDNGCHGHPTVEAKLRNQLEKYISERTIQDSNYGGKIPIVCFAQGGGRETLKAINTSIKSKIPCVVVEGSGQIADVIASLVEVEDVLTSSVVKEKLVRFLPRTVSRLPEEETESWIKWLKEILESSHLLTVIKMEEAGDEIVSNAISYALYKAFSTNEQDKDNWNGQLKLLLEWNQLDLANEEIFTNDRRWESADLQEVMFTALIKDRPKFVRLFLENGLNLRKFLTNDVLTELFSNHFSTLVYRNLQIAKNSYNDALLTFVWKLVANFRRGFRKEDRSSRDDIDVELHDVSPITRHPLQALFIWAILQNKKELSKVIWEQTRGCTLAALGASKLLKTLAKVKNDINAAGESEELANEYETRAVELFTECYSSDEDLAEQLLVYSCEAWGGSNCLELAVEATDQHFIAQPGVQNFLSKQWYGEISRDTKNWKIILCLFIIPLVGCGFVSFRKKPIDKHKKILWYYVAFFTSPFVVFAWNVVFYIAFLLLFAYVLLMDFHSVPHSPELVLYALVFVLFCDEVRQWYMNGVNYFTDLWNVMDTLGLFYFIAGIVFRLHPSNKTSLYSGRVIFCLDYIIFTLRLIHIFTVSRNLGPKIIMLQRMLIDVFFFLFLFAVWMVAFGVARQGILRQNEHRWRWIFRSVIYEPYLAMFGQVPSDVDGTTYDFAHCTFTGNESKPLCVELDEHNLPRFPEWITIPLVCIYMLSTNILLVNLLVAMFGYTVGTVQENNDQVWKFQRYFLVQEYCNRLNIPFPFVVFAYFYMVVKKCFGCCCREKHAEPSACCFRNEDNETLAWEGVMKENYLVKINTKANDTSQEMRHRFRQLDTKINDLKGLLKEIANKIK
# protocol description: In Vitro Canine TRPM8 Functional Assay (Ca2+ fluorescence, icilin activation)
# Type: cell-based
# recorded conditions: HEK293 cells stably expressing canine TRPM8; icilin activation; eight-point dose-response; read-out: IC50
measure name: pIC50
Here pIC50 is given on a logarithmic scale as minus log10 of the concentration in mol/L.

O=C(O)c1ccc(S(=O)(=O)N(CCC2CC2)c2sc3ccccc3c2Cl)cc1 ... 8.10
COC(=O)c1ccccc1S(=O)(=O)N(Cc1ccc(F)c(C(F)(F)F)c1)c1cc2ccccc2s1 ... 7.21
Cc1c(N(Cc2ccc(F)c(C(F)(F)F)c2)S(=O)(=O)c2c(Cl)nc3sccn23)sc2ccccc12 ... 7.72
COc1cccc(S(=O)(=O)N(Cc2ccc(F)c(F)c2)c2sc3ccccc3c2C)c1 ... 7.68

Q: Identify pIC50 associated with the compound O=S(=O)(c1ccccc1)N(Cc1cccc(F)c1)c1sc2ccccc2c1Cl
A: 7.59

Q: Identify pIC50 associated with the compound CCCCN(c1cc2ccccc2s1)S(=O)(=O)c1ccc(C(=O)O)cc1
A: 7.32

Q: Identify pIC50 associated with the compound CNc1ccc(S(=O)(=O)N(CCC2CC2)c2sc3ccccc3c2Cl)cc1Cl
A: 7.80

Q: Identify pIC50 associated with the compound CCS(=O)(=O)N(Cc1ccc(F)c(C(F)(F)F)c1)c1sc2ccccc2c1C
A: 7.86

Q: Identify pIC50 associated with the compound Cc1nc(C)c(S(=O)(=O)N(Cc2ccc(F)c(C(F)(F)F)c2)c2sc3ccccc3c2C)s1
A: 7.74

Q: Identify pIC50 associated with the compound Cc1c(N(Cc2ccc(OC(F)(F)F)cc2)S(=O)(=O)c2cccc3cnccc23)sc2ccccc12
A: 7.49
